# EXPERIMENTAL_TARGET: Cytochrome P450 2D6 (Homo sapiens) (UniProt P10635)
# Sequence (P10635 whole entry, looked up): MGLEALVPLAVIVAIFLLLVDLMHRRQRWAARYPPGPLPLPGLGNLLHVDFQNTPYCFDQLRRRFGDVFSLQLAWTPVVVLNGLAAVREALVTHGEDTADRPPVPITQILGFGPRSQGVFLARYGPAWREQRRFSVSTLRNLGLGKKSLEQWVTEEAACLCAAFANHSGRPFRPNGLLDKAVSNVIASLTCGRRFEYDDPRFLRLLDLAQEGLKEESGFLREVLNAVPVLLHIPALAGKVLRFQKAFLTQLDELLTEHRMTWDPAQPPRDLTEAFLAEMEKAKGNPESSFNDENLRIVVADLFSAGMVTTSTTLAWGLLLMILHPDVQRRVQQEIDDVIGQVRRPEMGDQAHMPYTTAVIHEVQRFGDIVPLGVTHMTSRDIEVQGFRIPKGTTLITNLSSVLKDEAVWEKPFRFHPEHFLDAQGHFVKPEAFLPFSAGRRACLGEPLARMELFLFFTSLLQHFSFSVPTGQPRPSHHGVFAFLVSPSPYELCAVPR
# EXPERIMENT_NOTES: qHTS Assay for Inhibitors and Substrates of Cytochrome P450 2D6 (AID 891); note: nearly all actives have a fitted effect of over 60% in size
# TEST_CONDITIONS: recombinant CYP2D6, luciferin-ME EGE luminescence; series mostly up to 57.1 µM
Results filed as inconclusive are left out. Activity calls are given as the source filed them. Calls come from the whole dose curve; as a rule, active = well fitted inhibition curve with a large enough effect; inconclusive = small, poorly fitted or top-dose-only effect; inactive = no such curve, though single readings can be large or run the other way.
Outcome (select one): t (active), f (inactive)

Reference set, count: 4
Cc1cccc(/C=C\c2ccccc2)n1 ... t
O=C1CC[C@H](N2C(=O)c3ccccc3C2=O)C(=O)N1 ... f
COc1cccc(NC(=O)/C=C\c2ccc(Cl)cc2)c1 ... f
CCCCCCCCC(=O)NCc1cc(OC)c(O)cc1I ... t

# lookup: test call for N[C@H](C(=O)O)C1[C@H](C(=O)O)[C@H]1C(=O)O (stereo partly specified)
t

# lookup: test call for COc1cc(/C=C(\C#N)C(N)=O)cc(CSc2nc3ccccc3s2)c1O
t

# lookup: test call for CC[N+](CC)(CC)CCOc1ccc(/C=C\c2ccccc2)cc1
t

# lookup: test call for CCCN=C(N)NCCC[C@H](N)C(=O)O
t

# lookup: test call for OCCNCCCOc1cccc(Cl)c1Cl
t

# lookup: test call for CCCCCCCCCCCCCCC[C@@H](O)[C@@H](N)CO
t

# lookup: test call for O=C(O)c1cc(=O)c2ccc(Cl)cc2[nH]1
f

====

# EXPERIMENT_NOTES: SDT Cancer Cell Toxicity qHTS against the NCATS CANVASS Library (AID 1347365);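 note: SDT canine glioma cells 500 per well in 1536 well plates; % is set by controls: 0 for no effect and ±100 for the full control effect; nearly all actives have a fitted effect of over 60% in size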
# TEST_CONDITIONS: SDT dog glioma viability, ATP luminescence, 72 h; series mostly up to 46.1 µM
Records with an inconclusive call do not appear. Activity calls are given as the source filed them. Calls follow the shape of the dose curve; as a rule, active = well fitted cell-killing curve with a large enough effect; inconclusive = small, poorly fitted or top-dose-only effect; inactive = flat fitted curve, though single readings scatter.
Outcome (select one): active, inactive

CC1(C)CC[C@]2(C(=O)O)CC[C@]3(C)C(=CC[C@@H]4[C@@]5(C)C[C@@H](O)[C@H](O)C(C)(C)[C@@H]5CC[C@]43C)[C@@H]2C1 ... inactive

Now turn to the next compound.
# lookup: test call for COC1C(O)C(OC(N)=O)C(Oc2ccc3c(O)c(NC(=O)c4ccc(O)c(CC=C(C)C)c4)c(=O)oc3c2C)OC1(C)C (stereo not given)
inactive

====

# EXPERIMENT_NOTES: UWB1.289 Cancer Cell Toxicity qHTS against the NCATS CANVASS Library (AID 1347347); note: nearly all actives have a fitted effect of over 60% in size
# TEST_CONDITIONS: UWB1.289 viability, CellTiter-Glo luminescence, 72 h; series mostly up to 38.3 µM
Results filed as inconclusive are left out. The source made the active and inactive calls. The call rests on the fitted dose curve; in most records, active means well fitted cell-killing curve with a large enough effect; inconclusive means small, poorly fitted or top-dose-only effect; inactive means flat fitted curve, though single readings scatter.
Outcome (select one): active, inactive

CC(C)=CCC/C(C)=C/Cc1c(O)c(CC=C(C)C)c(O)c2c(=O)c3cc(O)ccc3oc12 ... active

# lookup: test call for Cc1cc(O)cc2oc(C[C@H](C)O)cc(=O)c12
inactive

# lookup: test call for CCCCCCCCCCCCCCC[C@H](O)C[C@@H](O)C[C@@H](O)C[C@@H](O)C[C@@H](O)C[C@H]1CC=CC(=O)O1
active

# lookup: test call for CCC[C@@H](C)/C=C(\C)[C@H](O)[C@H](C)/C=C/CC[C@@H](O)[C@H](C)[C@H](O)[C@H](C)[C@H](O)[C@H](C)[C@H]1O[C@H]([C@H](C)C(=O)O)CC[C@@H]1C
active

# lookup: test call for COc1ccc(/C=C2\COc3cc(O)ccc3C2=O)cc1
inactive

# lookup: test call for CO[C@H]1/C=C/CC[C@@H](S[C@@H]2O[C@H](CO)[C@@H](O)[C@H](O)[C@H]2O)CC(=O)O[C@@H](/C(C)=C/[C@H](C)C(=O)CCCC2CC(=O)NC(=O)C2)[C@@H](C)[C@@H]1O
active

# lookup: test call for COc1cc(O)c2c3c(c(O)cc(C)c13)C(=O)OC2
inactive

# lookup: test call for C/C1=C\CC(=O)/C=C/C=C\c2csc(n2)[C@@H](C)NC(=O)C[C@@](S)([C@@H](C)C(=O)O)CC1
inactive

# lookup: test call for CO[C@@H]1C[C@@H](C[C@H]2CC[C@H](C)[C@H]([C@@H](C)C(=O)O)O2)O[C@]2(O[C@](C)([C@H]3CC[C@@](C)([C@@H]4O[C@@H]([C@H]5O[C@](C)(O)[C@H](C)C[C@@H]5C)C[C@@H]4C)O3)C[C@H]2C)[C@@H]1C
active

# lookup: test call for C/C=C/C=C/C1(O)C2C=C3C(=O)CC45C(=O)C(O)=C(C)C(=O)C4C1C1(C(=O)C(O)=C(C)C(=O)C351)C2C (configuration not stated)
inactive

# lookup: test call for O=Cc1ccc2n1C[C@@]1(OC2)O[C@H](CO)[C@@H](O)[C@@H]1O
inactive

# lookup: test call for CC(=O)O[C@H]1CC[C@@]2(C)C(CC[C@]3(C)C2CC=C2C4CC(C)(C)CC[C@]4(C)CC[C@]23C)C1(C)C (some centres not stated)
inactive

====

# EXPERIMENT_NOTES: Primary qHTS for inhibitors of nuclear receptor binding SET domain protein 2 (NSD2) in an RCH-ACV wild type WT cells (2C) (AID 1645877); note: potency is the fitted concentration of half-maximal effect; nearly all actives have a fitted effect of over 70% in size
# TEST_CONDITIONS: RCH-ACV (leukaemia line) NSD2 WT (2C) viability, CellTiter-Glo, 72 h; series mostly up to 44.9 µM
Results filed as inconclusive are left out. The source made the active and inactive calls. The call rests on the fitted dose curve; in most records, active means well fitted inhibition curve with a large enough effect; inconclusive means small, poorly fitted or top-dose-only effect; inactive means no such curve, though single readings can be large or run the other way.
READOUT_TYPE: Potency

O=C1c2ccccc2-c2c(NCCc3ccccc3)c(=O)[nH]c3cccc1c23 ... 4.61 µM (active)

Using the record for COc1ccc(C(=O)N(CCC(C)C)Cc2nc(C)c(C)n2Cc2ccccc2C)c(OC)c1 , state its measured Potency.
11.5 µM (active)

Using the record for CCCc1c(C(C)C)nc(C(C)C)c([C@@H](C)O)c1-c1ccc(F)cc1O , state its measured Potency.
14.5 µM (active)

Using the record for CCCCCCCCCCCCCCCCOCCCOP(=O)(O)COC(CO)Cn1ccc(N)nc1=O (centres undefined) , state its measured Potency.
18.6 µM (active)

====

# EXPERIMENT_NOTES: qHTS for Inhibitors of Plasmodium falciparum (CP250) proliferation (AID 504320);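 note: plate controls were DMSO vehicle for no effect and 0.29 µM artemisinin control for full effect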
# TEST_CONDITIONS: P. falciparum CP250 in erythrocytes, SYBR Green DNA, 72 h; series mostly up to 6.7 µM
Inconclusive results are not listed. Calls of active or inactive are those of the source. Calls follow the shape of the dose curve; as a rule, active = well fitted inhibition curve with a large enough effect; inconclusive = small, poorly fitted or top-dose-only effect, or effect the other way; inactive = flat fitted curve, though single readings scatter.
Outcome (select one): 1.0 = active, 0.0 = inactive

Reference set, count: 6
C[C@H]1Cc2c(-c3ccccc3)nc3c(c2CO1)CN(S(=O)(=O)c1ccc2c(c1)OCCN2C)CC3 ... 0.0
COc1cc(CO[C@H]2C=C[C@@H](c3ccccc3)O[C@H]2CO)cc(OC)c1 ... 0.0
COC(=O)N[C@H](C[N+](=O)[O-])C(C)(C)C ... 0.0
C=CCN1C(=O)[C@]2(O[C@H](C)CC3=CCCC32)c2c(Br)cccc21 (some centres undefined) ... 0.0
CCN1C(=O)[C@@H]2[C@H]3[C@H](O)[C@H](O)CC(=NO[C@@H]4O[C@H](COC(C)=O)[C@@H](OC(C)=O)[C@H](OC(C)=O)[C@@H]4OC(C)=O)[C@@H]3CC[C@H]2C1=O ... 0.0
CCN(CC)CC(O)CN1CCCCc2nc(C)c(C)cc21 (centres undefined) ... 0.0

# lookup: test call for O=C(C=Cc1ccc2c(c1)OCO2)c1ccc(F)cc1
0.0

# lookup: test call for C=CC[C@@H]1C=C[C@H](ON=C[C@@H](C)[C@H](OCc2ccccc2)C(C)C)[C@H](CO)O1
0.0

====

# EXPERIMENT_NOTES: qHTS Assay for Identifying Gametocytocidal Compounds (AID 743244);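 note: % is set by controls: 0 for no effect and ±100 for the full control effect; actives lower the fluorescent signal which means gametocytes are killed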
# TEST_CONDITIONS: P. falciparum 3D7 stage III-V gametocytes, alamarBlue, 72 h; active compounds read low
Inconclusive results are not listed.
READOUT_TYPE: max response (%)
The response must be a number in % with no trailing unit.

Reference set (6 entries):
CCOC(=O)CCC(=O)O[C@H]1[C@H](O[C@@H]2[C@@H](C)[C@H](O[C@H]3C[C@@](C)(OC)[C@@H](O)[C@H](C)O3)[C@@H](C)C(=O)O[C@H](CC)[C@@](C)(O)[C@H](O)[C@@H](C)C(=O)[C@H](C)C[C@@]2(C)O)O[C@H](C)C[C@@H]1N(C)C ... -6.05
C[N+]1(C)CCN(CC(O)(c2ccccc2)C2CCCCC2)CC1 (centres undefined) ... -2.89
CCNC(=O)[C@@H]1CCCN1C(=O)[C@H](CCCN=C(N)N)NC(=O)[C@H](CC(C)C)NC(=O)[C@@H](CC(C)C)NC(=O)[C@H](Cc1ccc(O)cc1)NC(=O)[C@H](CO)NC(=O)[C@H](Cc1c[nH]c2ccccc12)NC(=O)[C@H](Cc1cnc[nH]1)NC(=O)[C@@H]1CCC(=O)N1 ... 2.85
C1CCC(N=C(NC23CC4CC(CC(C4)C2)C3)N2CCOCC2)CC1 ... 10.5
Cc1cccc(/C=C/c2ccccc2)n1 ... 6.48
C#C[C@]1(OC(C)=O)CC[C@H]2[C@@H]3CCC4=CC(=O)CC[C@@H]4[C@H]3CC[C@@]21C ... -3.45

Using the record for C[C@H](Cc1ccccc1)Nc1ncnc2c1ncn2[C@@H]1O[C@H](CO)[C@@H](O)[C@H]1O , state its measured max response.
-7.31

Using the record for N#C/C(=C\c1ccc(O)c(O)c1)C(=O)Nc1ccccc1 , state its measured max response.
12.5

Using the record for N[C@@H](C(=O)N[C@@H]1C(=O)N2C(C(=O)O)=C(CSc3cn[nH]n3)CS[C@H]12)c1ccc(O)cc1 , state its measured max response.
-0.063

Using the record for CCC(=O)O[C@H]1CC[C@H]2[C@@H]3CCc4cc(O)ccc4[C@H]3CC[C@]12C , state its measured max response.
3.09

Using the record for N#C[C@@H]1C[C@@H]2C[C@@H]2N1C(=O)[C@@H](N)C12CC3CC(CC(O)(C3)C1)C2 , state its measured max response.
-8.8

Using the record for C=C1/C(=C\C=C2/CCC[C@]3(C)[C@@H]([C@H](C)OCCC(C)(C)O)CC[C@@H]23)C[C@@H](O)C[C@@H]1O , state its measured max response.
-1.53

Using the record for CC1(C)N=C(N)N=C(N)N1c1ccc(Cl)cc1 , state its measured max response.
-2.29

Using the record for Nc1c(S(=O)(=O)O)cc(Nc2ccc(Nc3nc(Cl)nc(Nc4ccc(S(=O)(=O)O)cc4)n3)c(S(=O)(=O)O)c2)c2c1C(=O)c1ccccc1C2=O , state its measured max response.
27.3

Where these numbers come from: PubChem BioAssay (NCATS)
